Tested on: HT1080
protocol text: relative viability vs DMSO control (72 h) (fraction); higher = more viable cells
cond: 0.00017 µM
Kindly supply the reported relative viability values for the records listed here.
I only need the number, thanks.

Notebook: Cc1nc(-c2cn3c(n2)-c2ccc(-c4cnn(C(C)(C)C(N)=O)c4)cc2OCC3)n(C(C)C)n1 , relative viability read as 1.02

Notebook: CC[C@H](Nc1ncnc2[nH]cnc12)c1nc2cccc(F)c2c(=O)n1-c1ccccc1 , relative viability read as 1.1

Notebook: Cc1cc(Nc2ncnc3ccc(NC4=NC(C)(C)CO4)cc23)ccc1Oc1ccn2ncnc2c1 , relative viability read as 1.06

Notebook: Cn1cnc2c(F)c(Nc3ccc(Br)cc3F)c(C(=O)NOCCO)cc21 , relative viability read as 1.1

----------
Kindly supply the reported relative viability values for the records listed here.
Test system: A204
protocol text: relative viability vs DMSO control (72 h) (fraction); higher = more viable cells
cond: 0.3704 µM
I only need the number, thanks.

Notebook: Nc1cc(C(F)(F)F)c(-c2cc(N3CCOCC3)nc(N3CCOCC3)n2)cn1 , relative viability read as 0.673

Notebook: C[C@]1(O)C[C@@H](c2nc(-c3ccc4ccc(-c5ccccc5)nc4c3)c3c(N)nccn32)C1 , relative viability read as 0.99

Notebook: Cc1cc(Nc2ncnc3ccc(NC4=NC(C)(C)CO4)cc23)ccc1Oc1ccn2ncnc2c1 , relative viability read as 1.02

Notebook: Cc1cc(C)c(/C=C2\C(=O)Nc3ccccc32)[nH]1 , relative viability read as 0.852

Notebook: CC(C)NC(=O)C1CCC(n2c(NC(=O)c3ccc(F)cc3)nc3ccc(CN4CCC(C(C)(C)O)CC4)cc32)CC1 (stereo not drawn) , relative viability read as 1.05

Notebook: C=CC(=O)Nc1cccc(Oc2nc(Nc3ccc(N4CCN(C)CC4)cc3)nc3ccsc23)c1 , relative viability read as 1.03

Notebook: C=CC(=O)N1CCC[C@@H](n2nc(-c3ccc(Oc4ccccc4)cc3)c3c(N)ncnc32)C1 , relative viability read as 1.07

Notebook: COc1cc2c(Oc3ccc4[nH]c(C)cc4c3F)ncnc2cc1OCCCN1CCCC1 , relative viability read as 0.336

Notebook: Cc1nc(NC(=O)N2CCC[C@H]2C(N)=O)sc1-c1ccnc(C(C)(C)C(F)(F)F)c1 , relative viability read as 0.767

Notebook: C[C@@H]1COCCN1c1cc(-c2ccnn2C)c2ccnc(-c3ccn[nH]3)c2n1 , relative viability read as 0.431

Notebook: CCN1CCN(Cc2ccc(Nc3ncc(F)c(-c4cc(F)c5nc(C)n(C(C)C)c5c4)n3)nc2)CC1 , relative viability read as 0.564

Notebook: COCc1c(-c2cc3cc(C)cc(OC)c3s2)c2c(N)ncnn2c1CN1CCNC(=O)C1 , relative viability read as 0.631

Notebook: CCCS(=O)(=O)Nc1ccc(F)c(C(=O)c2c[nH]c3ncc(-c4ccc(Cl)cc4)cc23)c1F , relative viability read as 1.11

----------
Test system: SW872
protocol text: standardised AUC of viability dose-response curve (72 h) (fraction (0-1)); higher = less growth inhibition (more resistant)
measured endpoint: standardised AUC

Notebook: C[C@@H]1CCN(C(=O)CC#N)C[C@@H]1N(C)c1ncnc2[nH]ccc12 , standardised AUC read as 0.932

Notebook: CC[C@H](Nc1ncnc2[nH]cnc12)c1nc2cccc(F)c2c(=O)n1-c1ccccc1 , standardised AUC read as 0.937

Notebook: Cc1ccc(NC(=O)c2ccc(CN3CCN(C)CC3)cc2)cc1Nc1nc(-c2cccnc2)cs1 , standardised AUC read as 0.874

Notebook: Cc1cc(C)c(/C=C2\C(=O)Nc3ccccc32)[nH]1 , standardised AUC read as 0.993

Notebook: Cc1nc(-c2cn3c(n2)-c2ccc(-c4cnn(C(C)(C)C(N)=O)c4)cc2OCC3)n(C(C)C)n1 , standardised AUC read as 0.76

Notebook: N#CC[C@H](C1CCCC1)n1cc(-c2ncnc3[nH]ccc23)cn1 , standardised AUC read as 0.945

Notebook: COc1cc2c(Oc3ccc4[nH]c(C)cc4c3F)ncnc2cc1OCCCN1CCCC1 , standardised AUC read as 0.986
